Ref: the domain aggregation screens of Martell et al. (2025)

# METHOD SUMMARY: soluble fraction after stress (log2 fold change); higher = more stays soluble; pooled small domains, quantitative proteomics;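 also: 20 min heating vs room temperature control held 20 min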
# PROTOCOL CONDITIONS: stress: 75 degC
Record form. Attribute: soluble fraction (log2). Fill in for each entry.
// no unit, no text: just the number

What value of soluble fraction (log2) has been recorded for this entry: HMQNWFADPKFEMFEDYGDAQSFYDTETKNIYVVMAEYGQKGSNTIQEITPDSEEYIPNYEKYKEYMENK
0.214

HMGQAELPYSEFLREVNNGQVKSVIIEGSEITGFYKTSGTSFNVIAPDDPKLVERLMAQGVEVRAQPA , same question.
0.144

Thanks! And HMSSLDTLTARETQILAEMAQGKNNAAIAAAVSVSERAVEKHTNSIFAKLGLSEEKDVNRRVMAVLLFLGR ?
-3.6

Okay, and HMDTNAIIGLRIKNLRTEKKYTLKYLSENTGLSIGFLSQLERGMTSIAIDSLDKISKVLDVELSSFFT ?
-1.69

Next sequence up: HMKKHALFTLFKHHNANGTTVWYARFWDDATQRYAIARSTGVLAQGKRERHDEAITVAREMASSIQFS
-2.81

And the next one, HMKDITPASEDQLKAITDLMLKVNGEWSDAFFTFISKKFNHQISSPEQLTTFEANTIIDMLRKKAEG ?
-0.601

Next: HMFELVKISENIPIRDLAETLKTTPNEIIKELMVFGVLANINQTLNFDLASKVADKLGFEVELL
-0.266

For HMTMKVTADILNMRSEASTNSDIVTKLKKDDELKVIEETKDDDGVTWVKVDFNGQVGFVSKEFLG then?
0.237

Now give it for HMEELPVLHLKHVVVEGESLWKLAEQYLNDGTRWQEIYMLNRENISNPDLIREGQELNIQFLQGE too.
-0.382

Cool, now HMFFAGLSPEAARTLDSLPLHSWSSVEQIARQAGLNIETVRKELGLLELSGIALSRQGRFRRA
-1.07

Entry HMEILPAYRDIKKEALLGNINAEFKYVNLLLEHNYIEQAFNIIEDMKTRVDDNPEFEELKSRVADAYLMY please
-1.56

Check HMHDLGEQIIEKLRASGGISTLTDKSDPDAIYRQFKVSKKKYKQALGTLYKSRRITLAPNQIKLA too.
-0.293

And what about the sequence HMFYNELMNFIVYKDSQKIGKIVNINDKLPQPVFEVLINDKKFMVPIHDDFIEKIDKEKKSIHIVIPDGLL ?
-0.684

Please answer likewise for HMTPATVVIPKVAGQTVAEAKETLKNANFEIGEEKDESSDTVEEGRVIRTDPESGTNRKEGTKINLIVSS
0.0198

Item: HMGKTKFTEMSALELKAYAELNNNSMHWVYRMLYIGGGDVGFRKGMKELGYSGKFIWMTLERLKKS
-1.24

Field entry: HMVIVGGDVIVHYVDTEGKKISDDVVKSGNVGEDYSTDQKTILGYRFKEVQGNTSGKFTDKTQVVTYIYT
0.649
